Hi there, I'd appreciate the recorded normalized growth for every entry that follows.
- RUN_DESCRIPTION: chemical genetic growth profiling, strain panel (AID 1159580);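 further: tested at 20 µM; growth read once vehicle control cultures reached saturation at 30 °C; 1 = growth at the plate median or of vehicle wells; lower values mean less growth of the strain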
- CONDITIONS: S. cerevisiae deletion strains, growth OD, locus YKL190W, strain CNB1, stronger effect = lower value
Hit rate of the full screen: of about 5,500 compounds, about 2,000 (36%) were called active. Another 18% or so got no clear call; they are omitted. Some of the results follow.

I am curious: what normalized growth value has been reported for COc1ccc2cc1Oc1ccc(cc1)C[C@H]1c3cc(c(OC)cc3CCN1C)Oc1c(OC)c(OC)cc3c1[C@H](C2)N(C)CC3 ? 1.01 (inactive)

Another molecule: CC(C)=CCc1c(O)cc(C)oc1=O 1.02 (inactive)

Another molecule: CC(C)=CCc1c(O)cc2oc(C)cc(=O)c2c1O 1 (inactive)

Another molecule: CC(=C(CCOP(=O)(O)O)SC(=O)c1ccccc1)N(C=O)Cc1cnc(C)nc1N 1.01 (inactive)

Another molecule: CC(=O)OCc1ccc(/C=C(\C#N)S(=O)(=O)c2ccc(Cl)cc2)o1 1.02 (inactive)

Another molecule: CCCC(C)(SCC(=O)O)SCC(=O)O 0.992 (inactive)
